# EXPERIMENTAL TARGET: human GLP-1 receptor (human, UniProt P43220 24-463)
# PROCEDURE TEXT: cell-based or functional assay
Starred links: 1 amine or outer side, 2 acyl side, 3 side chain; linkers in the order of their positions; H or OH if unused. Non-standard residues stand in square brackets, D forms with d. Groups on a side chain read outwards from the residue. *: point of attachment. C20 diacid = O=C(O)CCCCCCCCCCCCCCCCCCC(=O)*; C18 diacid = O=C(O)CCCCCCCCCCCCCCCCC(=O)*; C16 diacid = O=C(O)CCCCCCCCCCCCCCC(=O)*; γGlu = O=C(O)[C@H](CCC(=O)[*:2])N[*:1]; Desaminohistidyl = O=C(CCc1c[nH]cn1)*; εLys = N[C@@H](CCCCN[*:1])C(=O)[*:2]; Trx = NC[C@H]1CC[C@H](C(=O)O)CC1; AEEA = NCCOCCOCC(=O)O; Aib = CC(C)(N)C(=O)O
PROPERTY MEASURED: Human GLP-1R potency [EC50 (pM)]
Number in pM, nothing else.

Inquiry: Quickly give me recorded Human GLP-1R potency [EC50 (pM)] for Compound 0435 (peptide) peptide: HWEGTFTSDVSSYLEEQAAK([εLys-AEEA-AEEA-γGlu-Trx-C20 diacid])EFIEWLVRGRGEASELSTAALGRLSAELHELATLPRTETGSGSP-NH2
Reply text: 92.4

Inquiry: Tell us which Human GLP-1R potency [EC50 (pM)] value is on record for Compound 0128 (peptide) peptide: H[Aib]EGTFTSDVSSYLEEQAARK([AEEA-AEEA-γGlu-C18 diacid])FIEWLVRGK([AEEA-AEEA-γGlu-C18 diacid])GGEASELSTAALGRLSAELHELATLPRTETGSGSP-NH2
Reply text: 9.7

Inquiry: Return Human GLP-1R potency [EC50 (pM)] for the following binder: Compound 0035 (peptide) peptide: [Desaminohistidyl]AEGTFTSDVSSYLEEQAAREFIAWLVRGRK([AEEA-AEEA-γGlu-Trx-C20 diacid])EASELSTAALGRLSAELHELATLPRTETGSGSP-NH2
Reply text: 16.7

Inquiry: Report measured Human GLP-1R potency [EC50 (pM)]; entry is Compound 0294 (peptide) peptide: H[Aib]EGTFTSDVSSYLEK([AEEA-AEEA-γGlu-C16 diacid])QAAREFIAWLVRGRGGGGGASELSTAALGRLSK([AEEA-AEEA-γGlu-C16 diacid])ELHELATLPRTETGSGSP-NH2
Reply text: 13.7

Inquiry: Please look at this binder and report its Human GLP-1R potency [EC50 (pM)]: Compound 0272 (peptide) peptide: HWEGTFTSDK([AEEA-AEEA-γGlu-Trx-C20 diacid])SSYLEEQAAREFIEWLVRGRGEASELSTAALGRLSAELHELATLPRTETGSGSP-NH2
Reply text: 9.2

Inquiry: Identify measured Human GLP-1R potency [EC50 (pM)] associated with Compound 0151 (peptide) peptide: H[Aib]EGTFTSDVSSYLEGQAAREFIAWLVRGRK([AEEA-AEEA-γGlu-C18 diacid])GGGGEASELSTAALGRLSAELHELATLPRTETGSGSP-NH2
Reply text: 10.4
